# Test system: KIT-autoinhibited
# condition.details: concentration: 1 μM, replicates: in singlicate; n = 1;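 further: KINOMEscan kinase panel screen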
We use 9% as the dividing line for %Inh: on or above the line is y, below is n.

Is the recorded value of %Inh equal to or greater than 9% for this molecule? Cl.Cl.NCC(NC(=O)c1cc(-c2ccccc2)c(-c2ccnc3[nH]ccc23)s1)c1ccccc1 (centres unmarked) [GSK1321561]
n

Next record, please: Cc1occc1-c1ncc(OC[C@@H](N)Cc2c[nH]c3ccccc23)cc1-c1ccc2[nH]nc(C)c2c1.O=C(O)C(F)(F)F [GSK682037]
n

Next record, please: Fc1ccc(-c2ncn(C3CCNCC3)c2-c2ccnc(Oc3ccc(-c4ccccc4)cc3)n2)cc1 [SB-245391]
n

Next record, please: Cc1cccc(Nc2nc(N[C@H]3CCNC3)ncc2C(N)=O)c1.Cl [GSK2197149]
n

Next record, please: CN1CCN(CCCNc2nccc(-c3c(-c4ccc(F)cc4)nn4cc(C(F)(F)F)ccc34)n2)CC1 [GW621581]
n

Next record, please: Nc1ncnc2c1nc(-c1ccccc1)n2-c1ccccc1 [SKF-97293]
y

Next record, please: COc1cccc(C(=O)Nc2cccc(Oc3ccc4nc(NC(=O)C5CC5)cn4n3)c2)c1
y

Next record, please: Oc1cc(Nc2ccnc3cc(I)ccc23)ccc1F [GW552771]
n

Next record, please: Cn1cc(-c2[nH]c3cc(NC(=O)[C@H](N)C4CCCCC4)cc4c3c2C=NNC4=O)cn1
y

Next record, please: CCc1ccc(-c2ccc3c(c2)-c2c(cnn2C)S(=O)(=O)N3C)cc1
n

Next record, please: CSc1cccc2c(-c3ccncn3)c(-c3ccc(F)cc3)nn12 [GW514786]
n

Next record, please: Cc1ccc(F)c(C(=O)Nc2cccc(-c3nn4ccccc4c3-c3ccnc(Nc4cccc(F)c4)n3)c2)c1F [GSK361061]
n

Next record, please: O=C(NC1CCN(c2ccnc(Nc3ccc(F)cc3)n2)C1)c1cc2ccccc2s1 (centres unmarked) [GSK1379716]
n

Next record, please: O=C(Nc1n[nH]c2cc(-c3ccoc3)ccc12)C1CC1 [SB-738481]
n

Next record, please: O=c1[nH]cc(-c2ccc(N3CCOCC3)cc2)c2sc(-c3cn[nH]c3)cc12 [GSK2276055]
y

Next record, please: Cc1cccc(NC(=O)Nc2ccc(Oc3ncnc4ccn(C)c34)cc2)c1
y

----------
# System: STK16
# condition.details: concentration: 1 μM, replicates: in singlicate; n = 1
I'd appreciate it if you could supply %Inh values for the items below.
Please give a number only; it is taken to be in %.

For the compound shown here, CN1CCN(CCCNc2nccc(-c3c(-c4ccc(F)cc4)nn4cc(C(F)(F)F)ccc34)n2)CC1 , give the reported %Inh.
0

Next record, please: O=C(Nc1cccc(Oc2ccc3nc(NC(=O)C4CC4)cn3n2)c1)c1ccccc1C(F)(F)F
17

Next record, please: CCCCc1nn2ncccc2c1-c1ccnc(Nc2ccc(N3CCN(C)CC3)cc2)n1
86

Next record, please: Cl.c1ccc(-c2ccc3c(Nc4ccc5[nH]ncc5c4)ccnc3c2)nc1
30

----------
# Tested on: ULK2
# condition.details: concentration: 1 μM, replicates: in singlicate; n = 1
value.type: %Inh (%)
Please give a number only; it is taken to be in %.

# returns recorded %Inh (system: ULK2) for COc1ccc(-c2coc3ccc(-c4nnc(SCc5ccc(OC)c(C(F)(F)F)c5)o4)cc23)cc1
6

Next record, please: CSc1cccc2c(-c3ccncn3)c(-c3ccc(F)cc3)nn12
0

Next record, please: Nc1ncnc2c1nc(-c1ccccc1)n2-c1ccccc1
35

Next record, please: Cl.c1ccc(-c2ccc3c(Nc4ccc5[nH]ccc5c4)ccnc3c2)nc1
0

Next record, please: COc1cc2c(cc1OCCN1CCNCC1)ncc1c3ccc(C#N)cc3[nH]c21
99.8
